B1: KCNK9 (parent)
chain: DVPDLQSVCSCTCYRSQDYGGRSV

# Variants of: B1
# test.protocol: protein stability index of a GFP-peptide fusion (GPS, HEK-293T) (PSI 1-6); higher = more stable;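 also: lentivirally expressed fusions sorted by FACS into six bins by GFP to DsRed ratio, PSI derived from sequencing read proportions per bin multiplied by bin number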
# details: c terminus: a fixed tail appended
Lab note: compare protein stability index against 2. Equal or greater, write yes (1). Smaller, write no (0).

Answered cases to consult:
{"record.sequence": "DVPDLQSVCSCQCYRSQDYGGRSV [T12Q]", "category": "no (0)"}
{"record.sequence": "NVPDLQSVCSCTCYRSQDYGGRSV [D1N]", "category": "no (0)"}
{"record.sequence": "DVHDLQSVCSCTCYRSQDYGGRSV [P3H]", "category": "no (0)"}
{"record.sequence": "DVPDLQSVCSCTCYRSQDYGGRSL [V24L]", "category": "yes (1)"}
{"record.sequence": "DVPDLQSVCSCTCYRSQDYGKRSV [G21K]", "category": "no (0)"}
{"record.sequence": "MVPDLQSVCSCTCYRSQDYGGRSV [D1M]", "category": "no (0)"}

Ask | API: above_or_equal(metric=protein stability index, cutoff=2) for item DVPDLQSVCSCTCYRNQDYGGRSV [S16N]
Reply | yes (1)

Ask | Now the variant DVPDLQSVCSCTCYRSQDYGGRSD [V24D]
Reply | yes (1)

Ask | Now the variant DVPDLQSVCSCTCYRSQDNGGRSV [Y19N]
Reply | no (0)

Ask | Now the variant DVPDLQSVCSCDCYRSQDYGGRSV [T12D]
Reply | yes (1)

Ask | Now the variant DVPDLQSVCSCTCYRSQDYGGRST [V24T]
Reply | yes (1)
